All values here come from patent US20210246166A1.

human MASP1 IC50: recorded values
Target: T1, recombinant human MASP1 active protease (amino acids 297-699, C-terminal His Tag) (human, UniProt P48740 297-699)
T1 sequence: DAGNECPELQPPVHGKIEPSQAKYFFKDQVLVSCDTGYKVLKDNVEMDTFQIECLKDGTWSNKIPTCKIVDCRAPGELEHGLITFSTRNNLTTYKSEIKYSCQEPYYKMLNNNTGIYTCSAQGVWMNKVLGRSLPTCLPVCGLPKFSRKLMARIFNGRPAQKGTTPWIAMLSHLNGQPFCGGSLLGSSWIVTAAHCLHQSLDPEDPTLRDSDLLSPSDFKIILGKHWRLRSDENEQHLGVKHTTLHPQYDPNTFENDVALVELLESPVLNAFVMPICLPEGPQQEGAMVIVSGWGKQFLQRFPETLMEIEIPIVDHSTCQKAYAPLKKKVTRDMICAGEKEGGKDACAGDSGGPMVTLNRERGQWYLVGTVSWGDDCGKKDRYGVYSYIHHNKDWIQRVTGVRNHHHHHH
Test: cell-based or functional assay
Numbered stars: 1 amine (or outer) side, 2 acyl side, 3 side chain; on linkers, the order of the positions; unused ones are H or OH. Bridge positions count the residues as written; N and C are the ends. Square brackets hold non-standard residues; d marks the D form. Primed or numbered codes have the meaning given here. Ends that are not written are not given here. * marks the point of attachment. X3 = (1R,3S)‑3‑(Amino)cyclopentanecarboxylic acid, O=C([C@@H]1CC[C@H](N[*:1])C1)[*:2]; Tranexamic″ = tranexamic acid, NC[C@H]1CC[C@@H](C(=O)*)CC1; His(τ-Bzl) = N[C@@H](Cc1cn(Cc2ccccc2)cn1)C(=O)O; Oic = O=C(O)[C@@H]1C[C@@H]2CCCC[C@@H]2N1; Butanoyl(3,3-Me2) = CC(C)(C)CC(=O)*; tBuAla = CC(C)(C)C[C@H](N)C(=O)O; PEG4 = NCCOCCOCCOCCOCCC(=O)O; Pen = CC(C)(S)[C@H](N)C(=O)O; Tranexamic = tranexamic acid; NMeC = CN[C@@H](CS)C(=O)O; NPhGly = O=C(O)CNc1ccccc1; Orn = NCCC[C@H](N)C(=O)O; Sar = CNCC(=O)O
quantity: human MASP1 IC50

{"binder": "[Sar]ICSRSLP[Oic]ICIPD-OH (disulfide 3-11; N-terminus assumed; SMILES CC[C@H](C)[C@H](NC(=O)CNC)C(=O)N[C@H]1CSSC[C@@H](C(=O)N[C@H](C(=O)N2CCC[C@H]2C(=O)N[C@@H](CC(=O)O)C(=O)O)[C@@H](C)CC)NC(=O)[C@H]([C@@H](C)CC)NC(=O)[C@@H]2C[C@@H]3CCCC[C@@H]3N2C(=O)[C@@H]2CCCN2C(=O)[C@H](CC(C)C)NC(=O)[C@H](CO)NC(=O)[C@H](CCCNC(=N)N)NC(=O)[C@H](CO)NC1=O) [Example 349: ((N-Me)G)-IC+SRSLP-(Oic)-IC+IPD-OH]", "result": "9.6 nM"}
{"binder": "AICSRSLP[Oic]I[Pen]IPD-OH (disulfide 3-11; also: sodium salt) [Example 431: AIC+SRSLP-(Oic)-I-(Pen)+IPD-OH (sodium salt)]", "result": "2 nM"}
{"binder": "[Sar]ICSRS[tBuAla]PPI[Pen]IP[His(τ-Bzl)]-OH (disulfide 3-11; N-terminus assumed; SMILES CC[C@H](C)[C@H](NC(=O)CNC)C(=O)N[C@H]1CSSC(C)(C)[C@@H](C(=O)N[C@H](C(=O)N2CCC[C@H]2C(=O)N[C@@H](Cc2cn(Cc3ccccc3)cn2)C(=O)O)[C@@H](C)CC)NC(=O)[C@H]([C@@H](C)CC)NC(=O)[C@@H]2CCCN2C(=O)[C@@H]2CCCN2C(=O)[C@H](CC(C)(C)C)NC(=O)[C@H](CO)NC(=O)[C@H](CCCNC(=N)N)NC(=O)[C@H](CO)NC1=O) [Example 447: ((N-Me)G)-IC+SRS-((tBu)A)-PPI-(Pen)+IP-((1-Bn)H)-OH]", "result": "4.7 nM"}
{"binder": "[Tranexamic]ICSRS[tBuAla]PPI[NMeC]IPD-NH2 (disulfide 3-11) [Example 319: (Tranexamic)-IC+SRS-((tBu)A)-PPI-((N-Me)C)+IPD-NH2]", "result": "22 nM"}
{"binder": "AICSRSLPPIC[2‑Methyl‑D‑alloisoleucine]PD-NH2 (disulfide 3-11) [Example 374: AIC+SRSLPPIC+(2-Methyl-D-alloisoleucine)-PD-NH2]", "result": "37 nM"}
{"binder": "[NPhGly]ICSRS[tBuAla]PPI[Pen]IP-NH2 (disulfide 3-11; N-terminus assumed; SMILES CC[C@H](C)[C@H](NC(=O)CNc1ccccc1)C(=O)N[C@H]1CSSC(C)(C)[C@@H](C(=O)N[C@H](C(=O)N2CCC[C@H]2C(N)=O)[C@@H](C)CC)NC(=O)[C@H]([C@@H](C)CC)NC(=O)[C@@H]2CCCN2C(=O)[C@@H]2CCCN2C(=O)[C@H](CC(C)(C)C)NC(=O)[C@H](CO)NC(=O)[C@H](CCCNC(=N)N)NC(=O)[C@H](CO)NC1=O) [Example 311: ((N-Ph)G)-IC+SRS-((tBu)A)-PPI-(Pen)+IP-NH2]", "result": "20 nM"}
{"binder": "[Sar]ICSRSLP[Oic]I[Pen]IP[X3]-OH (disulfide 3-11; N-terminus assumed; SMILES CC[C@H](C)[C@H](NC(=O)CNC)C(=O)N[C@H]1CSSC(C)(C)[C@@H](C(=O)N[C@H](C(=O)N2CCC[C@H]2C(=O)N[C@H]2CC[C@@H](C(=O)O)C2)[C@@H](C)CC)NC(=O)[C@H]([C@@H](C)CC)NC(=O)[C@@H]2C[C@@H]3CCCC[C@@H]3N2C(=O)[C@@H]2CCCN2C(=O)[C@H](CC(C)C)NC(=O)[C@H](CO)NC(=O)[C@H](CCCNC(=N)N)NC(=O)[C@H](CO)NC1=O) [Example 449: ((N-Me)G)-IC+SRSLP-(Oic)-I-(Pen)+IP-((1R,3S)-3-(Amino)cyclopentanecarboxylic acid)-OH]", "result": "1.8 nM"}
{"binder": "{Tranexamic″}-ICSRS[tBuAla]PPI[Pen]IP-{PEG4-NH2} (disulfide 2-10; SMILES CC[C@H](C)[C@@H]1NC(=O)[C@@H]2CCCN2C(=O)[C@@H]2CCCN2C(=O)[C@H](CC(C)(C)C)NC(=O)[C@H](CO)NC(=O)[C@H](CCCNC(=N)N)NC(=O)[C@H](CO)NC(=O)[C@@H](NC(=O)[C@@H](NC(=O)[C@H]2CC[C@@H](CN)CC2)[C@@H](C)CC)CSSC(C)(C)[C@@H](C(=O)N[C@H](C(=O)N2CCC[C@H]2C(=O)NCCOCCOCCOCCOCCC(N)=O)[C@@H](C)CC)NC1=O) [Example 423: (Tranexamic)-IC+SRS-((tBu)A)-PPI-(Pen)+IP-(PEG3(16 atoms))-NH2]", "result": "5.7 nM"}
{"binder": "{Butanoyl(3,3-Me2)}-ICSRS[tBuAla]PPI[NMeC]I-NH2 (disulfide 2-10; SMILES CC[C@H](C)[C@H](NC(=O)[C@@H]1CSSC[C@H](NC(=O)[C@@H](NC(=O)CC(C)(C)C)[C@@H](C)CC)C(=O)N[C@@H](CO)C(=O)N[C@@H](CCCNC(=N)N)C(=O)N[C@@H](CO)C(=O)N[C@@H](CC(C)(C)C)C(=O)N2CCC[C@H]2C(=O)N2CCC[C@H]2C(=O)N[C@@H]([C@@H](C)CC)C(=O)N1C)C(N)=O) [Example 333: (tert-Butylacetic acid)-IC+SRS-((tBu)A)-PPI-((N-Me)C)+I-NH2]", "result": "25 nM"}
{"binder": "[Orn]AICSRS[tBuAla]PPI[NMeC]IPD-NH2 (disulfide 4-12; N-terminus assumed; SMILES CC[C@H](C)[C@H](NC(=O)[C@H](C)NC(=O)[C@@H](N)CCCN)C(=O)N[C@H]1CSSC[C@@H](C(=O)N[C@H](C(=O)N2CCC[C@H]2C(=O)N[C@@H](CC(=O)O)C(N)=O)[C@@H](C)CC)N(C)C(=O)[C@H]([C@@H](C)CC)NC(=O)[C@@H]2CCCN2C(=O)[C@@H]2CCCN2C(=O)[C@H](CC(C)(C)C)NC(=O)[C@H](CO)NC(=O)[C@H](CCCNC(=N)N)NC(=O)[C@H](CO)NC1=O) [Example 399: (Orn)-AIC+SRS-((tBu)A)-PPI-((N-Me)C)+IPD-NH2]", "result": "55 nM"}
